Each item that follows carries a reported melting point.
Assay Metric: melting point

1) CN(C)S(=O)(=O)c1cccc2c1Sc1ccc(OCc3ccccc3)cc1N2 = 192 to 194 °C
2) COC(=O)Cc1ccc(OCCNC(=O)C2Cc3ccccc3N2S(=O)(=O)c2ccc(-c3cc(F)ccc3Cl)cc2)cc1 (stereo not given) = 52 to 56 °C
3) COCC(C)(C)Cc1cc(N(C)C)ccn1 = 56 to 58 °C
4) COC(=O)CC1Oc2ccccc2NC1=O (stereo not given) = 140 °C
5) COc1cc(Nc2c(C#N)cnc3cc(-c4ccc(CN(C)C)cc4)ccc23)c(Cl)cc1Cl = 187 to 189 °C
6) Oc1cc(Br)ccc1C12CC3CC(CC(C3)C1)C2 = 112 to 114 °C
7) CON(c1ccc([N+](=O)[O-])cc1Cl)S(=O)(=O)c1ccc(Cl)c(Cl)c1 = 132 to 133 °C
8) COC(=O)c1ccccc1S(=O)(=O)NC(=O)Nc1cc(C)cc(C)n1 = 181 to 182 °C
9) CCc1nc(N)nc(N)c1-c1ccc(NCCc2ccccc2)c([N+](=O)[O-])c1 = 222 to 225 °C
10) O=c1[nH]c(-c2ccccc2)nc(-c2ccncc2)c1Br = > 300 °C

----------
Each item that follows carries a reported melting point.
Assay Metric: melting point

1. C=CCOc1cc(-c2nn3c(c2Cl)CCCC3)c(F)cc1Cl = 91 to 92 °C
2. CCCOc1c(OC)cc(C(=O)Cl)cc1[N+](=O)[O-] = 180 to 184 °C
3. CCCCCCCCCCCCCCCCCCNC(=O)OCC(CNS(=O)(=O)CCCI)NC(=O)OC (stereo unspecified) = 97 °C
4. CCNc1cc(Cl)nc(C#N)c1N = 150 °C
5. Cc1ccc(-c2ccc3c(c2)C=C(C(=O)Nc2ccc(CN4CCCCC4)cc2)CCS3)cc1 = 203 to 204 °C
6. COc1ccc(Nc2cccc3c2C(=O)N(C2CCC(=O)NC2=O)C3=O)c(OC)c1 (stereo unspecified) = 208 to 210 °C
7. Cc1cc(C)nc(NC(=O)NS(=O)(=O)c2cccc3c2OC(C)(C)C3)n1 = 203 to 206 °C
8. CCOC(=O)C1CCc2c(n(C)c3ccc(Cl)cc23)C1 (stereo unspecified) = 126 to 127 °C
9. CCOC(=O)C(=CNc1ccc(C2=NNC(=O)CC2)cc1)C(=O)OCC = 164 °C
10. Cc1cc(N(C)N)nnc1-c1ccc(C#N)cc1 = 149 to 152 °C
11. COc1cccc([C@H]2O[C@H](CC(=O)NCc3cccc(CCC(=O)O)c3)C(=O)N(CC(C)(C)CO)c3ccc(Cl)cc32)c1OC = 177 to 178 °C
12. Cn1c(=O)n(CC(=O)N(CCO)c2ccccc2)c2cnc(-c3ccccc3)nc21 = 231 to 233 °C
13. CC(=O)Nc1ccc(OCCCCCO[N+](=O)[O-])cc1 = 96 to 98 °C
14. COc1ccc(C)c(NC(=O)C(C)=Cc2ccccc2)c1 = 125 to 126 °C
15. Cc1ccc(C(C#N)Nc2ccc(S(C)(=O)=O)cc2)cc1 (stereo unspecified) = 158 to 160 °C
16. Cc1c2c(c(Cc3ccc(C(C)C)cc3)c(C)c1NCc1ccccc1)OCC2 = 115 to 116 °C
17. COc1cc(Cc2cc3cccc(-c4cccc(C(=O)NCCC#N)c4)c3s2)ccc1F = 158 to 159 °C
18. CCCCN(CC)CC(=O)OC1CC2(C)C(C(C)=O)CCC2C2CCC3CC(O)CCC3(C)C12 (stereo unspecified) = 111 to 112 °C
19. O=C(O)c1cccc2cc3ccccc3nc12 = 202 to 204 °C
20. CSc1cc(CBr)cc(S(N)(=O)=O)c1Cc1ccccc1 = 149 to 150 °C
21. CC(C)c1c(Cl)nc2ncnn2c1Cl = 119 °C

----------
Each item that follows carries a reported melting point.
Assay Metric: melting point

1. O=C(CCCCCCC(=O)N1CCN(c2cccc(F)c2)CC1)NO = 149 to 150 °C
2. O=C(O)c1cccc(-n2cnc3cc(-c4ccccc4)ccc32)c1 = 289 to 291 °C
3. Cc1c(CCNC(=O)OC(C)(C)C)c2cc(S(=O)(=O)c3ccc(C(F)(F)F)cc3)ccc2n1C = 124 to 128 °C
4. COc1ccc2c(c1)/C(=C/C#N)C(c1ccccc1)C2 (stereo not given) = 112 to 114 °C
5. CCOC(=O)c1cnc2c(c(C)nc3cc(C)nn32)c1NCCCN(C)C = 73 to 75 °C

----------
Each item that follows carries a reported melting point.
Assay Metric: melting point

1) Cc1nnc(NCCCN2CCCC2=O)c2c1cc1ccccn12 = 257 to 258 °C
2) CC(=O)Nc1cc(-c2ccncc2)cc2nc(-c3ccc(C)o3)nn12 = 257 to 259 °C
3) O=c1c(Cl)nsnc1Oc1cccnc1 = 134 to 136 °C
4) O=c1[nH]c2cc(F)c(NCCCC3CCCOC3)cc2o1 (stereo unspecified) = 144 to 145 °C
5) CC(C)CC(=O)OC1c2ccccc2C(=O)N1c1ccc2ccc(Cl)nc2n1 (stereo unspecified) = 154 °C
6) COc1c(C)c(C)c(OC)c(CC=C(C)CO)c1C = 85 to 86 °C
7) CC(C)c1c(C=O)c(-c2ccccc2)c2c3ccccc3cnn12 = 163 to 164 °C
8) O=C1c2ccccc2C(=O)C1c1cccc(O)c1 = 139 to 141 °C
9) Fc1ccc(N=Cc2ccccc2)c(F)c1 = 51 to 52 °C
10) CCOC(=O)N1CCc2nc3ccccc3c(Cl)c2CC1 = 104 °C
11) CCCCCCCCCCCc1[nH]c2cc(C(=O)OC)ccc2c1C=O = 147 to 149 °C

----------
Assay Metric: melting point

1. Clc1nccc(Oc2ccc3[nH]ccc3c2)n1 = 169 to 176 °C
2. O=c1c(-c2ccccc2)c(CSc2ncnc3[nH]cnc23)oc2ccccc12 = 208 to 209 °C
3. CSC(Oc1cc(C)c2ncc(I)cc2c1)C(=O)NC(C)(C#N)CF (stereo not given) = 70 to 79 °C
4. Cc1cc(=O)n2cccc(OCc3ccccc3)c2n1 = 110 to 112 °C
5. CCCn1c(=O)c2[nH]c(C3CC4COCC4C3)nc2n(CCC)c1=O (stereo not given) = 226 to 230 °C
6. O=C1CC2(SCCS2)C(=O)N1 = 112 to 115 °C
7. Cc1cccc(-c2[nH]c(C(C)C)nc2-c2ccc(F)c(-c3c[nH]c(C)n3)c2)n1 = 230 to 234 °C
8. CCCCS(=O)Cc1ccc(CS(=O)CCCC)cc1 (stereo not given) = 187 to 188 °C
9. CC(=NC(C#N)=C(N)C#N)c1ccc2ccccc2c1 = 188 to 189 °C
10. COC(=O)c1cccc(C=CC(=O)c2cc(OC)ccc2OC)c1 = 108 to 110 °C
11. CCOC(=O)C1C(=O)Cc2ccccc21 (stereo not given) = 58 to 61 °C
12. O=C(O)C(=Cc1c[nH]c2ncccc12)c1ccccc1 = > 230 °C
13. O=C(NCc1cccs1)Nc1cc(N2CC(c3ccccc3)CC2=O)ccn1 (stereo not given) = 179 to 180 °C
14. Nc1ncncc1Oc1ccccc1 = 118 to 120 °C
15. COC(=O)C1=C(C)NC(C)=C(C(=O)OCCN2CCN(C(c3ccc(F)cc3)c3ccc(F)cc3)CC2)C1c1cccc(Cl)c1Cl (stereo not given) = 90 to 93 °C
16. CCOC(=O)c1cnc2c(NC(=O)c3c(Cl)cccc3Cl)cccc2c1CSc1ncc[nH]1 = 120 to 123 °C
17. OCC1OC(n2cnc3c(Nc4ccccc4Cl)ccnc32)C(O)C1O (stereo not given) = 207 °C
18. CCc1nc(OC)c(NC(=O)N2CCN(c3cc(F)cc(F)c3)CC2)cc1C(=O)NC(C)C(=O)Nc1cc(CO)cc(Nc2c3ccccc3nc3ccccc23)c1 (stereo not given) = 202 to 204 °C
19. COc1ccc(-c2c(Cl)c(CNC3CC3)nc3sc4c(c23)CCN(Cc2ccccc2)C4)cc1OC = 131 to 132 °C
20. COC(=O)c1sc(Cl)nc1-c1ccccc1 = 55 to 57 °C

----------
Each item that follows carries a reported melting point.
Assay Metric: melting point

1. CCOc1cc(C(O)c2ccccn2)ccc1OCc1ccccc1 (configuration not stated) = 109 to 110 °C
2. COC(=O)CCCCC(C[N+](=O)[O-])SCC(=O)O (configuration not stated) = 85 to 91 °C
3. CCOC(=O)CCCOc1ccc(C2=NNC(=O)CC2)cc1Cl = 109 to 110 °C
4. N=C(N)Nc1ccc(Cl)c(Cl)c1 = 208 °C
5. CCCCCCCCn1c(=O)n(CCN2CCN(c3ccccc3OC)CC2)c(=O)c2cscc21 = 82 to 84 °C
6. CCCCCCCC(=O)OCCc1c(-c2ccccc2)nc(NC(C)=O)n2ncnc12 = 69 to 70 °C
7. CCCCCCCCCCCCCCC(C)(C(=O)O)C(=O)O = 83 to 85 °C
8. N#Cc1nn(-c2c(Cl)cc(C(F)(F)F)cc2Cl)cc1-c1ccoc1 = 139 °C
9. O=c1oc2ccccc2cc1S(=O)(=O)Cc1ccc(Cl)cc1Cl = 228 to 229 °C
10. CC1=NC(=S)N=C1CCCCNC(=O)c1ccccc1 = 180 to 184 °C
11. COc1cc2c(cc1OC)C(=O)C(N1CCC(n3c(=O)[nH]c4ccccc43)CC1)CC2 (configuration not stated) = 238 to 239 °C
12. CCOC(=O)[C@@H]1Cc2ccc([N+](=O)[O-])cc2CN1 = 94 to 95 °C
13. COC(=O)[C@H](Cc1cc(F)cc(F)c1)NC(=O)OCc1ccccc1 = 54 °C
14. Nc1c(-c2ccccc2O)c2ccccc2[nH]c1=O = 235 to 237 °C
15. CNC(=O)c1ccc(C(=O)O)cc1N = 215 to 217 °C
16. C=CCn1c(=O)[nH]c2ccccc2c1=N = 223 to 224 °C
17. CN(C)C1(c2ccccc2)CCC(CNCCc2c[nH]c3ccccc23)CC1 (configuration not stated) = 78 to 83 °C
18. CCc1[nH]n(C2CCCC2)c2nc(-c3ccccc3OCC(=O)O)nc(=O)c1-2 = 208 to 209 °C
19. CCOc1nc2c(cnn2CC)nc1C(=O)Nc1nccs1 = 151 to 152 °C
20. O=c1cc(-c2ccccc2)oc2c(CN3CCN(CCO)CC3)c(O)c(O)c(O)c12 = 192 °C
21. CC1(C)CN(CCO)C(=O)C(C)(C)N1 = 91 to 93 °C
22. NCCNC(=O)COc1ccc(C2=NNC(=O)CC2)cc1Cl = 168 to 170 °C
